Data credit: patent US11584737B2

In this section, each of the compounds is paired with its reported inhibition at 1 µM.
# SYSTEM_TESTED: CDK12/CycK complex (Homo sapiens)
# Sequence (Q9NYV4 whole entry, species assumed): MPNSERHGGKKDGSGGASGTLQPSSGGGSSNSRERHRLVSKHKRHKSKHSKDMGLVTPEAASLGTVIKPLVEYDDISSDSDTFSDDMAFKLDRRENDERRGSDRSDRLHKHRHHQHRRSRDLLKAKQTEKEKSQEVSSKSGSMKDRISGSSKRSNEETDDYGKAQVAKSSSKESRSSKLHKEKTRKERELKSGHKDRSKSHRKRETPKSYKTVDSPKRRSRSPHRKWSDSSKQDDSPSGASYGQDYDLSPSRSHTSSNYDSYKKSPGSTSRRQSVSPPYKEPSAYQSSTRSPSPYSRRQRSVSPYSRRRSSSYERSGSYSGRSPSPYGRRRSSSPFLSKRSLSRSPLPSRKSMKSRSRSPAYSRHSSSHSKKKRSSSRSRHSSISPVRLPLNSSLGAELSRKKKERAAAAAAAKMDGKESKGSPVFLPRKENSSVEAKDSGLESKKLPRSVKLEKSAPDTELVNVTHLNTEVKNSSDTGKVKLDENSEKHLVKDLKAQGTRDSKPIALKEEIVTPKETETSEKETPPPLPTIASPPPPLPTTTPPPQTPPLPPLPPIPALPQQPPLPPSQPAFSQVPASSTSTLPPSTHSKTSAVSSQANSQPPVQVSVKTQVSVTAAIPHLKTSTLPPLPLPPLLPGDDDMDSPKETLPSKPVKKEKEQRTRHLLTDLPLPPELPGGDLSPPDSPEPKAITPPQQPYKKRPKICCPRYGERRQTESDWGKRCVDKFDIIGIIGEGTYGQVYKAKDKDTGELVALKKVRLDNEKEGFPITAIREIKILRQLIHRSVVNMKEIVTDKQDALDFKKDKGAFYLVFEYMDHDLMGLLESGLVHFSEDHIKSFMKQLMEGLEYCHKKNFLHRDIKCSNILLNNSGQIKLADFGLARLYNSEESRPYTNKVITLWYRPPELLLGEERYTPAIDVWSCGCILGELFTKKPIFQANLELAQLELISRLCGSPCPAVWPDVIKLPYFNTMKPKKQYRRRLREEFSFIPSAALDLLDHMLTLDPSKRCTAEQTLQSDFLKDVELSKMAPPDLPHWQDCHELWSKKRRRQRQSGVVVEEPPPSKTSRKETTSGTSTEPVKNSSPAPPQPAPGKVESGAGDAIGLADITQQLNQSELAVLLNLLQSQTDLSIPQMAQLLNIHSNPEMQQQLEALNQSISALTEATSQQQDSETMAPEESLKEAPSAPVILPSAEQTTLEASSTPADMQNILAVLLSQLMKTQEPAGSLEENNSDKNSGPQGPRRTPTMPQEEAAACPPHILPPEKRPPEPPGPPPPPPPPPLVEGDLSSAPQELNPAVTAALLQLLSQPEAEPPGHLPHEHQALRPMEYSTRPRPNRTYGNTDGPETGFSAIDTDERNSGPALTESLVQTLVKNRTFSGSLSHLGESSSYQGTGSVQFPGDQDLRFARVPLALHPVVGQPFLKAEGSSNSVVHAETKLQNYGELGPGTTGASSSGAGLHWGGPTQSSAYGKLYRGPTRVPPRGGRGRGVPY
# Sequence (O75909 whole entry partner, species assumed): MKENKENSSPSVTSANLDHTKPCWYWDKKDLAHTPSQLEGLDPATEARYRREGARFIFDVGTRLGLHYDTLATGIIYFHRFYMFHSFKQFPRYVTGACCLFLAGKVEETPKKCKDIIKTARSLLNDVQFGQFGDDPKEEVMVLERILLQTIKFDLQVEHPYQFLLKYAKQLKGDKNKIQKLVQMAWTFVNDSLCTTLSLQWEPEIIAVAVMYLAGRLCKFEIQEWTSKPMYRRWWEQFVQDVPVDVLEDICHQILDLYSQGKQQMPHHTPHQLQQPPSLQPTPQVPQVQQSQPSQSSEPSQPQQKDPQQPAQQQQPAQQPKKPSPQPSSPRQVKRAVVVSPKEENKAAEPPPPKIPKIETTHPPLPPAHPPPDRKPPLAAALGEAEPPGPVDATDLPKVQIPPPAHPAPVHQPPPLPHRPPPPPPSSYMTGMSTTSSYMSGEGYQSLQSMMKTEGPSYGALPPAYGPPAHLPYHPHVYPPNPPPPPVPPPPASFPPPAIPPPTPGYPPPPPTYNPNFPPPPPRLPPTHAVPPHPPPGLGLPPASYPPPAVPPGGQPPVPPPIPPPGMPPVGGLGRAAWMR
# METHOD_NOTES: Measurement of CDK12 inhibitory activity by binding assay (TR-FRET, 66 nM BODIPY-FL-labeled AT-7519)
# CONDITIONS_USED: inhibitory rate against CDK12 at 1 μM test compound, 66 nM BODIPY-FL-labeled AT-7519, 2 nM CDK12/CycK
QUANTITY_MEASURED: inhibition at 1 µM (%)

COc1ncc(-c2ccc(N(C(=O)NCc3ccccc3)[C@H]3CC[C@H](Nc4ncc(C#N)c(-c5cn[nH]c5C)n4)CC3)nc2)cn1 [Example 577]    88
COc1ncc(-c2ccc(N(C(=O)NCc3ccccc3)[C@H]3CC[C@H](Nc4ncc(C#N)c(NC5COC5)n4)CC3)nc2)cn1 [Example 553]    100
COc1ncc(-c2ccc(N(C(=O)NCc3ccccc3)[C@H]3CC[C@H](Nc4ncc(C#N)c(N5CC(C)(O)C5)n4)CC3)nc2)cn1 [Example 626]    105
Cn1cc(-c2ccc(N(C(=O)NCc3ccccc3)[C@H]3CC[C@H](Nc4ncc(C#N)c(N5CC(C)(O)C5)n4)CC3)nc2)cn1 [Example 482]    104
COc1ncc(-c2ccc(N(C(=O)NCc3ccccc3)[C@H]3CC[C@H](Nc4ncc(C#N)c(N5CCCC(O)CC5)n4)CC3)nc2)cn1 (stereo partly drawn) [Example 595]    104
COc1ncc(-c2ccc(N(C(=O)NCc3ccccc3)[C@H]3CC[C@H](Nc4ncc(C(F)(F)F)c(N5CCCC(O)CC5)n4)CC3)nc2)cn1 (stereo partly drawn) [Example 592]    101
